Source: patent US12564595B2

# maps each entry to its FC in respect of mutant strain 2 (E92Q/E138T/G140S/Q148H)
Tested on: HIV mutant strain 2 (E92Q/E138T/G140S/Q148H)
assay summary: Test Example 2: resistance evaluation test (HeLa-CD4 reporter), mutant strain 2
Assay type: cell-based
settings: FC=EC50 of mutant strain/EC50 of wild strain; HeLa-CD4 cells
Give the figure only, with no unit attached.

Answer with reported FC in respect of mutant strain 2 (E92Q/E138T/G140S/Q148H) of CCN1C(=O)c2c(O)c(=O)c(C(=O)NCc3c(F)cc(F)cc3F)cn2N2[C@H](COC)CC[C@@H]12 [II-093] 25

New cases:
Answer with reported FC in respect of mutant strain 2 (E92Q/E138T/G140S/Q148H) of CN1C(=O)c2c(O)c(=O)c(C(=O)NCc3cccc(Cl)c3F)cn2N2[C@H]3COC[C@H]3C[C@@H]12 [II-132] 17

Answer with reported FC in respect of mutant strain 2 (E92Q/E138T/G140S/Q148H) of CCN1C(=O)c2c(O)c(=O)c(C(=O)NCc3c(F)cc(F)cc3F)cn2N2C[C@@H]3CC[C@@H](O3)[C@@H]12 [II-041] 28

Answer with reported FC in respect of mutant strain 2 (E92Q/E138T/G140S/Q148H) of CCN1C(=O)c2c(O)c(=O)c(C(=O)NCc3ccc(F)cc3)cn2N2CCCC[C@@H]12 [II-070] 36

Answer with reported FC in respect of mutant strain 2 (E92Q/E138T/G140S/Q148H) of CCN1C(=O)c2c(O)c(=O)c(-c3nnc(Cc4cc(F)c(F)cc4F)s3)cn2N2CCCC[C@@H]12 [Compound I-022] 46

Answer with reported FC in respect of mutant strain 2 (E92Q/E138T/G140S/Q148H) of CCN1C(=O)c2c(O)c(=O)c(C(=O)NCc3ccc(F)cc3F)cn2N2C[C@@H]3CCC[C@@H](O3)[C@@H]12 [II-150] 16

Answer with reported FC in respect of mutant strain 2 (E92Q/E138T/G140S/Q148H) of CCN1C(=O)c2c(O)c(=O)c(-c3nnc(Cc4cc(F)c(F)cc4F)s3)cn2N2C[C@@H]3CC[C@@H](C3)[C@@H]12 [II-148] 6.6

Answer with reported FC in respect of mutant strain 2 (E92Q/E138T/G140S/Q148H) of CCN1C(=O)c2c(O)c(=O)c(-c3nnc(Cc4c(F)cc(F)cc4F)s3)cn2N2C[C@@H](C)CC[C@@H]12 [II-156] 4.6

Answer with reported FC in respect of mutant strain 2 (E92Q/E138T/G140S/Q148H) of CCN1C(=O)c2c(O)c(=O)c(C(=O)NCc3ccc(F)cc3F)cn2N2C[C@@H]3CC[C@@H](O3)[C@@H]12 [II-088] 45

----------
assay summary: Test Example 8: metabolic stability test
Type: in vitro ADME, human
settings: pooled human liver microsomes, 30 min at 37° C., NADPH, compound concentration 0.5 μmol/L
# maps each entry to its Remaining percentage
Number only, in %; omit the unit.

Answer with reported Remaining percentage of CN1C(=O)c2c(O)c(=O)c(C(=O)NCc3cccc(Cl)c3F)cn2N2CCCC[C@@H]12 [II-092] 101

Answer with reported Remaining percentage of CN1C(=O)c2c(O)c(=O)c(C(=O)NCc3cccc(Cl)c3F)cn2N2C[C@@H]3CC[C@@H](C3)[C@@H]12 [II-023] 74.2

Answer with reported Remaining percentage of CCN1C(=O)c2c(O)c(=O)c(-c3nnc(Cc4c(F)cc(F)cc4F)s3)cn2N2C[C@@H](C)C[C@@H]12 [II-112] 90.5

Answer with reported Remaining percentage of CCN1C(=O)c2c(O)c(=O)c(-c3nnc(Cc4cc(F)c(F)cc4F)s3)cn2N2C[C@@H]3CC[C@@H](C3)[C@@H]12 [II-148] 71.7

Answer with reported Remaining percentage of CCN1C(=O)c2c(O)c(=O)c(-c3nnc(Cc4c(F)cc(F)cc4F)s3)cn2N2[C@H](COC)CC[C@@H]12 [II-117] 93.4

Answer with reported Remaining percentage of COC[C@@H]1CC[C@H]2N(C)C(=O)c3c(O)c(=O)c(C(=O)NCc4cccc(Cl)c4F)cn3N12 [II-026] 86

Answer with reported Remaining percentage of CCN1C(=O)c2c(O)c(=O)c(-c3nnc(Cc4c(F)cc(F)cc4F)s3)cn2N2CC[C@H](C)C[C@@H]12 [II-147] 91.5

----------
# maps each entry to its D value (dosewise additivity value)
Tested on: HIV
assay summary: Test Example 3: test for confirmation of combined use effect
Assay type: cell-based
Design: key: <-0.1 synergy, -0.1 to 0.1 additive, >0.1 antagonism
settings: combination with compound (B) Darunavin (PI)
Method: The two compounds in respect of which the effect of combined use was desired to be examined were mixed in various ratios, and the anti-HIV activity (50% HIV inhibiting concentration) for each combination was found by the method of test example 1. […] The D value that is found by evaluating the anti-HIV activity of respective combinations of M concentrations of compound X1 and N concentrations of compound X2 is calculated by the following mathematical expression 1. […]
Give the figure only, with no unit attached.

Answer with reported D value (dosewise additivity value) of CN1C(=O)c2c(O)c(=O)c(C(=O)NCc3cccc(Cl)c3F)cn2N2CCCC[C@@H]12 −0.117

New cases:
Answer with reported D value (dosewise additivity value) of CCN1C(=O)c2c(O)c(=O)c(-c3nnc(Cc4ccc(F)cc4F)s3)cn2N2[C@H](COC)CC[C@@H]12 −0.058

Answer with reported D value (dosewise additivity value) of CCN1C(=O)c2c(O)c(=O)c(C(=O)NCc3c(F)cc(F)cc3F)cn2N2C[C@@H](C)CC[C@@H]12 −0.130

Answer with reported D value (dosewise additivity value) of COC[C@@H]1CC[C@H]2N(C)C(=O)c3c(O)c(=O)c(C(=O)NCc4cccc(Cl)c4F)cn3N12 −0.137

----------
# maps each entry to its D value (dosewise additivity value)
System: HIV
assay summary: Test Example 3: test for confirmation of combined use effect
Type: cell-based
Design: key: <-0.1 synergy, -0.1 to 0.1 additive, >0.1 antagonism
settings: combination with compound (B) Darunavin (PI)
Give the figure only, with no unit attached.

Use the examples below as a reference point.
Answer with reported D value (dosewise additivity value) of CCN1C(=O)c2c(O)c(=O)c(C(=O)NCc3cccc(Cl)c3F)cn2N2[C@H]3COCC3C[C@@H]12 (stereo partly shown) −0.076

Answer with reported D value (dosewise additivity value) of C[C@H]1C[C@H]2N(C)C(=O)c3c(O)c(=O)c(C(=O)NCc4cccc(Cl)c4F)cn3N2C1 −0.115

Answer with reported D value (dosewise additivity value) of CCN1C(=O)c2c(O)c(=O)c(-c3nnc(Cc4c(F)cc(F)cc4F)s3)cn2N2CCCC[C@@H]12 −0.096

Proceed to the following item.
Answer with reported D value (dosewise additivity value) of CCN1C(=O)c2c(O)c(=O)c(-c3nnc(Cc4ccc(F)cc4F)s3)cn2N2C[C@@H](C)C[C@@H]12 −0.143

----------
assay summary: Test Example 8: metabolic stability test
Assay type: in vitro ADME, human
settings: human, microsomes, 0.5 h, 0.5 μmol/L, pH 7.4
# maps each entry to its Remaining percentage
Number only, in %; omit the unit.

Use the examples below as a reference point.
Answer with reported Remaining percentage of CCN1C(=O)c2c(O)c(=O)c(C(=O)NCc3ccc(F)cc3F)cn2N2[C@H]3COC[C@H]3C[C@@H]12 [II-038] 77.2

Answer with reported Remaining percentage of CC(C)N1C(=O)c2c(O)c(=O)c(C(=O)NCc3c(F)cc(F)cc3F)cn2N2[C@H]3COC[C@H]3C[C@@H]12 [II-133] 73.3

Answer with reported Remaining percentage of CN1C(=O)c2c(O)c(=O)c(C(=O)NCc3cccc(Cl)c3F)cn2N2[C@H]3COC[C@H]3C[C@@H]12 [II-132] 101

Proceed to the following item.
Answer with reported Remaining percentage of CCN1C(=O)c2c(O)c(=O)c(C(=O)NCc3cccc(Cl)c3F)cn2N2[C@H]3COCC3C[C@@H]12 (stereo partly shown) [II-052] 61.6

----------
assay summary: Test Example 8: metabolic stability test
Format: in vitro ADME, human
settings: pooled human liver microsomes, 30 min at 37° C., NADPH, compound concentration 0.5 μmol/L
# maps each entry to its Remaining percentage
Number only, in %; omit the unit.

Use the examples below as a reference point.
Answer with reported Remaining percentage of COC[C@@H]1CC[C@H]2N(C)C(=O)c3c(O)c(=O)c(-c4nnc(Cc5c(F)cc(F)cc5F)s4)cn3N12 [II-151] 94.6

Answer with reported Remaining percentage of CCN1C(=O)c2c(O)c(=O)c(C(=O)NCc3ccc(F)cc3F)cn2N2CC[C@H](C)C[C@@H]12 [II-064] 104

Answer with reported Remaining percentage of CCN1C(=O)c2c(O)c(=O)c(-c3nnc(Cc4c(F)cc(F)cc4F)s3)cn2N2C[C@@H](C)CC[C@@H]12 [II-156] 91.3

Proceed to the following item.
Answer with reported Remaining percentage of CCN1C(=O)c2c(O)c(=O)c(C(=O)NCc3ccc(F)cc3)cn2N2CCCC[C@@H]12 [II-070] 100
